Item-by-item account of Average Cell Viability after 24 Hours (% DMSO)
- Tested on: viable cells in culture
- test description: Cell viability assay (CellTiter-Glo Luminescent Cell Viability Assay, ATP quantitation, percent of vehicle control)
endpoint name: Average Cell Viability after 24 Hours (% DMSO)

> print(dat)
                                   compound  observed.result
1  CCCCc1c(C)[nH]c2c(-c3ccc(Cl)cc3)c(C)nn2c1=O [compound 1167]            97.27
2  CC1CCc2c(sc3ncnc(N4CCCC(C)C4)c23)C1 (stereo not drawn) [compound 1545]            43.72
3  CCCCC(=O)NC(c1cccs1)c1cc(Cl)c2cccnc2c1O (stereo not drawn) [compound 1067]            49.62

====

- Test system: viable cells in culture
- test description: Cell viability assay (CellTiter-Glo Luminescent Cell Viability Assay, ATP quantitation, percent of vehicle control)
endpoint name: Average Cell Viability after 24 Hours (% DMSO)

> print(dat)
                                    compound  observed.result
 1  O=[N+]([O-])c1cc(CN2CCN(c3ccccc3)CC2)c(O)c2ncccc12 [compound 1029]            32.00
 2  O=c1cc(Cc2ccccc2)[nH]c2c(-c3ccc(Cl)cc3)cnn12 [compound 1149]            87.19
 3  COc1cccc(C=NNC(=O)C(C)Nc2cccc3ccccc23)c1O (centres unmarked) [compound 1279]            63.90
 4  COc1ccc(-c2nnc(SCC(=O)Nc3ccc(S(N)(=O)=O)cc3)o2)cc1 [compound 1409]            86.13
 5  CCCc1cc(=O)n2ncc(-c3cccc(Br)c3)c2[nH]1 [compound 1486]            73.20
 6  O=C(Nc1cc([N+](=O)[O-])ccc1O)c1cccc(F)c1 [compound 1334]            75.50
 7  COc1ccc(-c2cc(=O)n3nc(C)c(-c4ccccc4)c3[nH]2)cc1 [compound 1150]            86.82
 8  CC1CCN(Cc2cc(COC(C)C)c3cccnc3c2O)CC1 [compound 1103]            58.35
 9  COc1cccc(CCNC(=O)c2cc(-c3cccs3)on2)c1 [compound 1497]            92.73
10  CCCC(=O)NC(c1ccc(N(C)C)cc1)c1cc(Cl)c2cccnc2c1O (centres unmarked) [compound 1066]            72.46
11  Cc1nn2c(=O)c(Cc3ccc(Br)cc3)c(C)[nH]c2c1-c1ccccc1 [compound 1165]            55.73
12  CCC(=O)NC(/C=C/c1ccccc1)c1cc([N+](=O)[O-])c2cccnc2c1O (centres unmarked) [compound 1035]            62.45
13  CCC(C)Cn1c(CO)nc2ccccc21 (centres unmarked) [compound 1340]           106.88
14    COc1cc(C)ccc1OC1CCNCC1 [compound 1451]            96.84
15  CCCOCc1cc(CN2CCN(C)CC2)c(O)c2ncccc12 [compound 1101]            76.69
16  CCN(Cc1ccncc1)C(=O)c1cccs1 [compound 1542]           111.82
17  Cc1ccc2c(I)cc(I)c(O)c2n1 [compound 1105]            58.63
18  COc1ccc(-c2nnc(NC(=O)c3ccc(Cl)cc3)o2)cc1 [compound 1178]            83.07
19  CCCNC(=O)c1cc(-c2ccc(F)cc2)on1 [compound 1180]            81.47
20  S=C(Nc1ccc(Br)cc1)Nc1cccc(Cl)c1 [compound 1344]            42.95
21  O=C(NCCN1CCOCC1)c1cc(-c2cccs2)on1 [compound 1187]            95.94
22  Cc1c2c(=O)n(-c3nc4ccccc4s3)nc-2cc(O)n1Cc1ccccc1 [compound 1117]            84.16
23  CCOc1ccc(NC(=O)Nc2cccc(C(C)=O)c2)c([N+](=O)[O-])c1 [compound 1442]            84.87
24  CC1CCN(C(=S)NC(=O)c2sc3ccccc3c2Cl)CC1 [compound 1422]           102.65
25  CC1(C)CC(NC(=O)c2ccc(S(=O)(=O)N3CCOCC3)cc2)CC(C)(C)N1 [compound 1363]            89.56
26  COc1ccccc1OCC(=O)N/N=C/c1cccc2cccnc12 [compound 1288]            78.28
27  CC(=O)NC(c1cccs1)c1ccc2cccnc2c1O (centres unmarked) [compound 1058]            69.11
28  CC(C)OCc1cc(CN2CCCCC2)c(O)c2ncccc12 [compound 1102]            68.56
29  CCC(=O)NC(c1ccco1)c1cc(Cl)c2cccnc2c1O (centres unmarked) [compound 1039]            72.76

====

Item-by-item account of Average Cell Viability after 24 Hours (% DMSO)
- System: viable cells in culture
- test description: Cell viability assay (CellTiter-Glo Luminescent Cell Viability Assay, ATP quantitation, percent of vehicle control)
endpoint name: Average Cell Viability after 24 Hours (% DMSO)

> print(dat)
                                    molecule  observed.result
 1  O=S(=O)(c1cccc(F)c1)N1CCC(Oc2ccc(-n3cnnn3)cc2)CC1            65.10
 2  CC(/C=C/c1ccc(N(C)C)cc1)=N\NC(=N)SC1CC(=O)N(c2ccc(Cl)cc2)C1=O (centres unmarked)            69.29
 3  O=C(OCc1ccc(Cl)cc1Cl)c1ccc(-c2nnc(-c3ccccc3)o2)cc1            83.30
 4       Cc1ccc(S(=O)(=O)NC(=O)c2ccccc2O)cc1           121.47
 5  CC(=O)NC(c1ccccc1Cl)c1ccc2cccnc2c1O (centres unmarked)            93.50
 6   CCc1cc(=O)oc2c(C)c(OC(=O)c3ccccc3)ccc12           105.11
 7             CCC(=O)Nc1c(Br)cc(C)cc1C(=O)O           105.87
 8  Cc1ccc(SCc2cc(=O)n3nc(C)c(-c4ccc(F)cc4)c3[nH]2)cc1            63.67
 9  CCCCC(=O)NC(c1ccc2c(c1)OCO2)c1cc([N+](=O)[O-])c2cccnc2c1O (centres unmarked)            78.00
10  COc1cc(C(=O)Nc2ccc(-c3nc4ccccc4[nH]3)cc2)ccc1OC(C)=O            97.84
11  CCCC(=O)NC(c1ccc(C(C)C)cc1)c1cc([N+](=O)[O-])c2cccnc2c1O (centres unmarked)            65.75
12        CCCOc1ccc2c(c1)c1c3n2CCN(C)C3=NCC1            75.90
13  CCOC(=O)c1ccc(N2C(=O)c3[nH]nc(-c4ccccc4)c3C2c2ccccc2OC)cc1 (centres unmarked)            76.71
14  Cc1ccc2nc(-c3ccc(NC(=S)Nc4cccc([N+](=O)[O-])c4)cc3)sc2c1            77.16
15  CC(C)C(=O)NC(c1ccc2c(c1)OCO2)c1cc([N+](=O)[O-])c2cccnc2c1O (centres unmarked)            67.37
16  CCOC(=O)c1cc(NC(=O)N(C(C)C)C(C)C)c(C)nc1C           103.16
17  CCCCC(=O)NC(/C=C/c1ccccc1)c1cc([N+](=O)[O-])c2cccnc2c1O (centres unmarked)            80.34

====

- System: viable cells in culture
- test description: Cell viability assay (CellTiter-Glo Luminescent Cell Viability Assay, ATP quantitation, percent of vehicle control)
Below, each of the compounds is paired with its reported Average Cell Viability after 24 Hours (% DMSO) value.
endpoint name: Average Cell Viability after 24 Hours (% DMSO)

> print(dat)
                                   compound          measured.target  value.unit  observed.result
1  CC1=NN(c2ccccc2)C(=O)C1C(=O)c1ccc(Br)cc1 (stereo not drawn)  viable cells in culture      % DMSO            81.68
2  Oc1c(C(Nc2ccccn2)c2ccc(Cl)c(Cl)c2)ccc2cccnc12 (stereo not drawn)  viable cells in culture      % DMSO            56.92
3  COc1ccc(C(NC(=O)C2CCCCC2)c2cc([N+](=O)[O-])c3cccnc3c2O)cc1OC (stereo not drawn)  viable cells in culture      % DMSO            78.35

====

- Tested on: viable cells in culture
- test description: Cell viability assay (CellTiter-Glo Luminescent Cell Viability Assay, ATP quantitation, percent of vehicle control)
Each entry below carries its recorded Average Cell Viability after 24 Hours (% DMSO).
endpoint name: Average Cell Viability after 24 Hours (% DMSO)

> print(dat)
                                chem.smiles  observed.result
1  O=C(CN1C(C(=O)c2ccccc2)=C(O)c2ccccc2S1(=O)=O)c1ccccc1            80.54
2               Brc1n[nH]c2ncnc(N3CCCC3)c12            77.92
3      Cc1ccc(-n2c(=O)oc3ccc(Cl)cc3c2=O)cc1            77.91
